The values you see were collected from PubChem BioAssay (NCI).

test: NCI Yeast Anticancer Drug Screen. Data for the bub3 strain (AID 167)
measurement conditions: S. cerevisiae bub3 mutant strain, at 50.0 µM (retest, dose inferred, filed as 5.0)
The panel holds about 79,000 compounds, 15% with a hit somewhere; the sample as a whole holds those more often. The source made the active and inactive calls. Rule as the data show it: active = growth inhibition above about 70%; inactive = the rest.
// one of active, inactive, no free text

The examples below pair each entry with its known result.
# molecule, label value
rows = [
    ("CC(=O)N[C@H]1CCC2[C@@H]3CCC4=CC(=O)NCC[C@]4(C)C3CC[C@@]21C (some centres undefined)", "active"),
    ("COC1=CC(=O)c2ncc(Cl)cc2C1=O", "active"),
]

In this assay, the call recorded for "CC(C)C[C@H](NC(=O)[C@H](Cc1ccccc1)NC(=O)c1cnccn1)B(O)O" was what?
active

Repeat for the following molecule: "Nc1nc(-c2ccccn2)cc2c(Cl)cccc12"
active

Repeat for the following molecule: "O=c1cc(/C=C/c2ccccc2)cccc1O"
active

Repeat for the following molecule: "Cc1ccsc1C(=S)Nc1ccc(Cl)c(/C=N/OC(C)C)c1"
inactive

* * *

Below: a set of entries, each annotated with reported growth inhibition.
test: NCI Yeast Anticancer Drug Screen. Data for the cln2 rad14 strain (AID 165);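 also: 0% = growth equal to vehicle treated cultures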
measurement conditions: S. cerevisiae cln2 rad14 strain, at 5.0 µM (retest, dose inferred, filed as 0.5), hits give high values
Compounds without any hit were thinned out: in the full panel of roughly 79,000, 15% have a hit.
Response body: numeric value in %, unit text excluded.

// known answers, use as guide
# molecule, reported
measured = [
    ("Cc1ccc(O)c(Cc2ccc(Cl)cc2)c1", -80),
    ("CCCCC(CC)COP(=O)(OCC(CC)CCCC)OCC(CC)CCCC (configuration not stated)", 0),
    ("O=[N+]([O-])c1cc(C(F)(F)F)cc([N+](=O)[O-])c1CCl", 100),
    ("CCOC(=O)Nc1cc(NC(C)/C(=N/O)c2ccccc2)c([N+](=O)[O-])c(N)n1 (configuration not stated)", -21),
    ("CCOCCOC(=O)C(C)O (configuration not stated)", 5),
]

Look up growth inhibition: CCCCCCCCCCCCCCC(C(=O)O)S(=O)(=O)O (configuration not stated)
-2

Repeat for the following molecule: "CCCCCCCCCCS(=O)(=O)Nc1ccc(C(=O)NN)cc1"
54

Repeat for the following molecule: CC(=O)NC1CCCCC1CC1CCCCC1 (configuration not stated)
-57

Repeat for the following molecule: Cc1ccc(C)c(NC(=O)/C(=N\NC(N)=S)C(C#N)c2ccccc2)c1 (configuration not stated)
-1

Repeat for the following molecule: "COc1ccc(-c2c(COC(C)=O)c(COC(C)=O)c3n2CCC3)cc1"
-3

Repeat for the following molecule: "O=C(N(c1ccc(Cl)cc1)c1ccc(Cl)cc1)C(Cl)(Cl)Cl"
14

Repeat for the following molecule: "Cc1cc(O)c(C(=O)/C=C/c2ccnc3ccccc23)c(=O)o1"
11

Repeat for the following molecule: "C=CCCCCCCCCC(=O)ON(Cc1ccc(O)c(OC)c1)C(=O)C(F)(F)F"
20

Repeat for the following molecule: "COc1cc(/C=C2/N=C(c3ccccc3)N(C3=NNC4(C(=O)N3)c3ccccc3-c3ccccc34)NC2=O)ccc1O"
3

Repeat for the following molecule: O=C(c1ccccc1)c1ccc(OCC2CO2)cc1 (configuration not stated)
-5

Repeat for the following molecule: Fc1ccc(OCCC(Cn2ccnc2)c2ccc(Cl)cc2Cl)cc1 (configuration not stated)
61

Repeat for the following molecule: CC(C)c1ccc(C2C3=C(N=C4SCC(=O)N42)C(=O)c2ccccc23)cc1 (configuration not stated)
-31
